- System: UO-31 renal
- test: NCI tumour cell line growth inhibition, 48 h; in the data active = GI50 below about 0.43 µM; inactive = the rest
Classes used: true (1) (active), false (0) (inactive)

compound: O=C1C(Cl)=C(Nc2cccc(O)c2)C(=O)N1c1cc(Cl)c(Cl)cc1Cl
assignedCategory: false (0)
//
compound: c1cnc2[nH]cc(-c3csc(-c4cn(CCCCN5CCOCC5)c5ccccc45)n3)c2c1
assignedCategory: false (0)
//
compound: COC(=O)CNC(=O)[C@@H](OC)[C@@H]1Cc2cc3cc(OC4CC(OC5CC(O)C(O)C(C)O5)C(O)C(C)O4)c(C)c(O)c3c(O)c2C(=O)[C@H]1OC1CC(OC2CC(OC3CC(C)(O)C(O)C(C)O3)C(O)C(C)O2)C(O)C(C)O1 (stereo partly drawn)
assignedCategory: false (0)
//
compound: Cn1ccnc1C(=O)/C=C/c1ccc(CC(=O)Nc2ccccc2)cc1
assignedCategory: false (0)
//
compound: CC(=O)OCC1OC(n2ccc(=O)[nH]c2=O)C(OC(C)=O)C1OC(C)=O (stereo not drawn)
assignedCategory: false (0)
//
compound: CO/N=C(\C)c1ccc(Nc2cc(-c3ccccc3)nc3c(O)cccc23)cc1
assignedCategory: false (0)
//
compound: CC1OC2CC(=O)OC2C2=C1C(=O)c1c(O)c3c(c(O)c1C2=O)C1CC(O)C3(O)C(C)O1 (stereo not drawn)
assignedCategory: true (1)
//
compound: CCCCCCCCCCCC[n+]1ccc(CCCCCCCCC)cc1
assignedCategory: false (0)

* * *

- System: NCI-H226 lung
- test: NCI tumour cell line growth inhibition, 48 h

compound: c1ccc(CSc2nc(N3CCOCC3)c3cn[nH]c3n2)cc1
TGI: 73.1 µM
//
compound: CC(=O)[O-].CC(=O)[O-].[NH2-].[Pt+2].c1ccc2cnccc2c1
TGI: > 100 µM
//
compound: Cc1ccc(NC(=O)/C(=N\Nc2ccc([N+](=O)[O-])cc2[N+](=O)[O-])C2C(=O)NC(=O)NC2=O)cc1
TGI: > 100 µM
//
compound: O=C(CSCC(=O)N/N=C\c1ccc(-c2ccccc2)cc1)N/N=C\c1ccc(-c2ccccc2)cc1
TGI: 84.5 µM
//
compound: CNC(=O)c1[nH]cnc1/N=N/N(C)N
TGI: > 100 µM
//
compound: CN(CCOc1ccc(C#N)cc1)CCOc1ccc(C#N)cc1
TGI: > 100 µM
//
compound: CC(C)C1OC(=O)/C=C/C=C/C=C/C=C/C=C/CC(O)CC(O)CC(O)CC(O)CC(O)CC(O)CC(O)CC(O)/C=C/C1C (stereo not given)
TGI: > 100 µM
//
compound: CC(=O)n1c2ccccc2c2nc3nc(Oc4ccc(C)cc4)c4ccccc4c3cc21
TGI: > 100 µM
//
compound: CC(C)C[P+](c1ccccc1)(c1ccccc1)c1ccccc1
TGI: > 100 µM
//
compound: COC(=O)/N=[N+](\[O-])C(c1ccc(OC)cc1)C1CCCCC1 (stereo not given)
TGI: 26.9 µM
//
compound: S=c1[nH]c2ccc(Br)cc2c(=S)n1-c1ccccc1
TGI: 83.6 µM
//
compound: CC1C[C@]2(C)C(=O)N(c3ccccc3)C(=N)[C@@H]2N(C)c2ccccc21 (stereo not given in full)
TGI: > 100 µM
//
compound: CCO/N=[N+](\[O-])N(CC)CC
TGI: > 100 µM
//
compound: COc1ccc(CC2NC(=O)/C=C/CC(C(C)C3OC3c3ccccc3)OC(=O)C(CC(C)C)OC(=O)C(C)CNC2=O)cc1Cl (stereo not given)
TGI: 0.000127 µM
//
compound: CCC(CC)n1c(C)nc2c1C(=O)c1ccccc1C2=O
TGI: > 100 µM
//
compound: O=C(CSC(=S)N1CCOCC1)Nc1nc2c(s1)CCCC2
TGI: > 100 µM
//
compound: CC1=C(O)C(=O)C2C(=O)C1C(C)C2c1ccc(Cl)cc1 (stereo not given)
TGI: > 100 µM
//
compound: COc1cc[n+](C)cc1
TGI: > 100 µM
//
compound: COc1cccc(NC(=O)CC(=O)N2N=C(C)C(N=Nc3ccc(S(=O)(=O)c4ccc(N=NC5C(=O)N(C(=O)CC(=O)Nc6cccc(OC)c6)N=C5C)cc4)cc3)C2=O)c1 (stereo not given)
TGI: > 100 µM
//
compound: COc1cc([C@@H]2c3cc4c(cc3[C@@H](NC(=O)c3ccccc3)C3COC(=O)[C@@H]32)OCO4)cc(OC)c1O (stereo not given in full)
TGI: 8.28 µM
